biological target: human OT7T175 (metastin receptor) (human, UniProt Q969F8 1-398); assay: cell-based or functional assay
Sequence (Q969F8 whole entry L364H): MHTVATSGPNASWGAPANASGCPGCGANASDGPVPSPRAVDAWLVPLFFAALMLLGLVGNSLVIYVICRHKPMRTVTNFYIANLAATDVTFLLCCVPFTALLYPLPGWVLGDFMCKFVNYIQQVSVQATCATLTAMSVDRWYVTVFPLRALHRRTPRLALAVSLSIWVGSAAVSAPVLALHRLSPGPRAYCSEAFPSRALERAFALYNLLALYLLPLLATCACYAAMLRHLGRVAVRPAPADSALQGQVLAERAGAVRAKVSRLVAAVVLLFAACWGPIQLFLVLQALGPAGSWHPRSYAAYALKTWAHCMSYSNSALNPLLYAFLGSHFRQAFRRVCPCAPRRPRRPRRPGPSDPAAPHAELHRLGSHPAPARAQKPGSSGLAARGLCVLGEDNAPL
Non-standard residues stand in square brackets, D forms with d. No end group written: not given here. *: point of attachment. Propanoyl(3-(3-pyridyl)) = O=C(CCc1cccnc1)*; Arg(Me) = CNC(=N)NCCC[C@H](N)C(=O)O; 4Pal = N[C@@H](Cc1ccncc1)C(=O)O; d4Pal = N[C@H](Cc1ccncc1)C(=O)O; azaGly = NNC(=O)O
Please go through the items and note down their cell growth inhibition activity, IC50.
API: value field is a number in nM; no unit string.

Ask: Please report the recorded cell growth inhibition activity, IC50 for {Propanoyl(3-(3-pyridyl))}-NSF[azaGly]L[Arg(Me)]F-NH2 (SMILES CNC(=N)NCCC[C@H](NC(=O)[C@H](CC(C)C)NC(=O)NNC(=O)[C@H](Cc1ccccc1)NC(=O)[C@H](CO)NC(=O)[C@H](CC(N)=O)NC(=O)CCc1cccnc1)C(=O)N[C@@H](Cc1ccccc1)C(N)=O, also called Compound No. 322) [des(1-3)-3-(3-Pyridyl)propionyl-[AzaGly7,Arg(Me)9]MS10] .
Result: 71.9

Ask: Same thing, different binder: [dY]NWNSFGL[Arg(Me)]F-NH2 [[D-Tyr1,Arg(Me)9]MS10]
Result: 87

Ask: Thanks! And [dY][d4Pal]NSF[azaGly]L[Arg(Me)]F-NH2 (N-terminus assumed; SMILES CNC(=N)NCCC[C@H](NC(=O)[C@H](CC(C)C)NC(=O)NNC(=O)[C@H](Cc1ccccc1)NC(=O)[C@H](CO)NC(=O)[C@H](CC(N)=O)NC(=O)[C@@H](Cc1ccncc1)NC(=O)[C@H](N)Cc1ccc(O)cc1)C(=O)N[C@@H](Cc1ccccc1)C(N)=O, also called Compound No. 305; KiSS1-305) [des(1)-[D-Tyr2,D-Pya(4)3,AzaGly7,Arg(Me)9]MS10] ?
Result: 8.94

Ask: Now try [dY]N[4Pal]NSF[azaGly]L[Arg(Me)]F-NH2 (also called Compound No. 286) [[D-Tyr1,Pya(4)3,AzaGly7,Arg(Me)9]MS10] .
Result: 18.3

Ask: Can you handle [dY][dN][4Pal]NSF[azaGly]L[Arg(Me)]F-NH2 (also called Compound No. 303) [[D-Tyr1,D-Asn2,Pya(4)3,AzaGly7,Arg(Me)9]MS10] next?
Result: 41.2

# credit: patent US20090298765A1
